- study_system: human CD73 on the cell surface (293T/17-huCD73 cells) (human) (UniProt P21589)
- Sequence (P21589 27-549): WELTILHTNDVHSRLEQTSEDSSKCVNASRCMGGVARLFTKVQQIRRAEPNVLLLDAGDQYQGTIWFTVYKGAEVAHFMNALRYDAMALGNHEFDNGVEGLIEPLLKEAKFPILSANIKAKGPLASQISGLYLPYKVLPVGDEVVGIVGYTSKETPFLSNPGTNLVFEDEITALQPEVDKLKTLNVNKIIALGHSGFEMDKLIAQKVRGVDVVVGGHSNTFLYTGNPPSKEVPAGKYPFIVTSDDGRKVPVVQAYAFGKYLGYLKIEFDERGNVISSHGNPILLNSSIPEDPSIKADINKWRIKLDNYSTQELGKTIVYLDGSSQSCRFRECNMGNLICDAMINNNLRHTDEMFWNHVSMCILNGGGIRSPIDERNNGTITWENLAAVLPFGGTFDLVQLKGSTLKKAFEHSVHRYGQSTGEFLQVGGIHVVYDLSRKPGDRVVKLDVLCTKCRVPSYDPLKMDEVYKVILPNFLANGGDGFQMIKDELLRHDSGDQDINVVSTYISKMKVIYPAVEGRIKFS
- protocol_details: cell-based or functional assay
Measured IC50, blockade of 5'exonuclease activity of U87-MG cells values are reported for all entries that follow.
Reply with just the number (in nM).

[
  {
    "binder": "JB24H3L3 (antibody, human IgG1, kappa, V domains shown) VH: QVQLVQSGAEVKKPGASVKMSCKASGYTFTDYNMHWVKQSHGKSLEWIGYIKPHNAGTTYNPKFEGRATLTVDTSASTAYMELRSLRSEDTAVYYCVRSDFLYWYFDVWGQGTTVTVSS VL: DIVMTQSPSSLSASVGDRVTITCTASSSVSSSYLHWYQQKPGSSPKLWIYSTSNLASGVPGRFSGSGSGTDYTLTISSLQPEDFATYYCHQYHRSPLTFGAGTKLEIKR",
    "reported": 0.12
  },
  {
    "binder": "JB94H3L3 (antibody, human IgG1, kappa, V domains shown) VH: QVQLQQSGAEVKKPGASVKLSCKASGYTFTSYWMHWVRQRPGQGLEWIGYINPSSGYTKSNQKFKDRATLTADTSTSTAYMELSSLRSEDTAVYYCGRWLLSAWFAYWGQGTLVTVSS VL: DIQMTQSPSSLSASVGDRVTITCKASQDINTYLSWFQQKPGKSPKSLIYRSNILVDGVPSRFSGSGSGQDYTLTISSLQPEDFAIYYCLQYDDFPYTFGQGTKLEIKR",
    "reported": 0.456
  }
]

Requested read-out: IC50, blockade of 5'exonuclease activity of U87-MG cells. Entry: JB24H3L2 (antibody, human IgG1, kappa, V domains shown) VH: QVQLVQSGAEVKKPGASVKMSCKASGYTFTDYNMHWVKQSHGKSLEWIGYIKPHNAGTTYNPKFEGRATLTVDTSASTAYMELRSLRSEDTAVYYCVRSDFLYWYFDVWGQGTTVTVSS VL: DIQMTQSPSSLSASVGDRVTITCTASSSVSSSYLHWYQQKPGSAPKLWIYSTSNLASGVPSRFSGSGSGTDYTLTISSLQPEDFATYYCHQYHRSPLTFGAGTKLEIKR 0.27
